assay: Hela cell cytotoxicity (CC50); details: human, HeLa cells (human cervical cancer cells), CC50_Hela, half of the toxic concentration
RESULT TYPE: CC50 (µg/mL)
Reply numerically in µg/mL, unit not repeated.

Ask: GET /values?readout=CC50&item= COc1ncc(-c2ccc(Br)cc2)cc1C(c1ccccc1)C(O)(CCN(C)C)c1cccc(F)c1F (stereo not shown)
Reply: 31.3

Ask: Reported CC50 for COc1ncc(-c2ccsn2)cc1C(c1ccccc1)C(O)(CCN(C)C)c1cccc2ccccc12 (stereo not shown) : what is it?
Reply: 12.7

* * *

tested on: Vero Cell; test: Vero cell cytotoxicity (IC50); assay type: cell-based; conditions: Chlorocebus sabaeus, Vero, African green monkey kidney cells
Below, each entry is listed with its recorded IC50.

Here are 5 molecules together with their reported answers.
Ask: Quick one: IC50 of COc1ncc(-c2ccc(Br)cc2)cc1C(c1ccccc1)C(O)(CCN(C)C)c1cccc(Cl)c1 (stereo not drawn) ?
Reply: > 32 µg/mL

Ask: Returns the measured IC50 for the input molecule. Input: COc1cccc(C(c2cc(-c3ccccc3)cnc2OC)C(O)(CCN(C)C)c2ccccc2)c1OC (stereo not drawn)
Reply: > 50 µg/mL

Ask: Fill in: IC50 of COc1ncc(-c2ccc(F)c(F)c2)cc1C(c1ccccc1)C(O)(CCN(C)C)c1cccc2ccccc12 (stereo not drawn) is ___
Reply: > 32 µg/mL

Ask: Which IC50 is reported for this molecule? COc1ncc(-c2ccc(Cl)cc2)cc1C(c1ccccc1)C(O)(CCN(C)C)c1cc(F)cc(F)c1 (stereo not drawn)
Reply: > 32 µg/mL

Ask: For the molecule COc1ncc(-c2ccc(F)cc2)cc1C(c1ccccc1)C(O)(CCN(C)C)c1cccc2ccccc12 (stereo not drawn) , what IC50 is on record?
Reply: > 50 µg/mL

Others:
Ask: I'd like to know its IC50. The molecule in question is COc1ncc(-c2ccc(Br)cc2)cc1C(c1ccccc1)C(O)(CCN(C)C)c1cc(F)ccc1F (stereo not drawn)
Reply: > 32 µg/mL

Ask: Would you mind telling me what IC50 value was observed for COc1ncc(-c2ccoc2)cc1C(c1ccccc1)C(O)(CCN(C)C)c1cccc2ccccc12 (stereo not drawn) ?
Reply: 25.5 µg/mL

Ask: Given the molecule COc1ncc(-c2csc(Cl)c2)cc1C(c1ccccc1)C(O)(CCN(C)C)c1cccc2ccccc12 (stereo not drawn) , what is its reported IC50?
Reply: > 32 µg/mL

Ask: Which IC50 value is on record for COc1ncc(-c2ccc(Cl)cc2)cc1C(c1ccccc1)C(O)(CCN(C)C)c1cc(Cl)cc(Cl)c1 (stereo not drawn) ?
Reply: > 32 µg/mL

Ask: Given COc1ncc(-c2ccc(Cl)cc2)cc1C(c1ccccc1)C(O)(CCN(C)C)c1ccc(Br)cc1 (single isomer, unassigned) , state its recorded IC50.
Reply: > 32 µg/mL

Ask: Which IC50 value is on record for COc1ncc(-c2cscn2)cc1C(c1ccccc1)C(O)(CCN(C)C)c1cccc2ccccc12 (stereo not drawn) ?
Reply: 25.1 µg/mL

Ask: If you can, please state the reported IC50 value of COc1ncc(-c2ccsc2Cl)cc1C(c1ccccc1)C(O)(CCN(C)C)c1cccc2ccccc12 (stereo not drawn) .
Reply: > 32 µg/mL

Value source: patent US9878982B2
